These measurements were taken from patent US12097252B2.

test: In-use chemical stability of vaccine emulsions by UPLC/MS after extraction of peptides; type: physicochemical; details: peak in reconstituted P53-DP-5P, in-use storage t = 2 h
Could you please report measured Peptides and related substances (≥0.05%) [Area %] for the items listed next?
Write it as a number; the unit Area % goes unstated.

Ask: Name the reported Peptides and related substances (≥0.05%) [Area %] value associated with the substance SEQ ID NO 201: P53-derived synthetic long peptide, component of P53 DP-5P (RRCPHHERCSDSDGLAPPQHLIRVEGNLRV)
Result: 11.72

Ask: Name the reported Peptides and related substances (≥0.05%) [Area %] value associated with the substance SEQ ID NO 194: P53-derived synthetic long peptide, component of P53 DP-5P (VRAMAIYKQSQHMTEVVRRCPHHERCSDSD)
Result: 11.87

Ask: Name the reported Peptides and related substances (≥0.05%) [Area %] value associated with the substance SEQ ID NO 203: P53-derived synthetic long peptide, component of P53 DP-5P (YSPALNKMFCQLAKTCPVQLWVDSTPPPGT)
Result: 16.21
